Data origin: the supplement of paper PMC12042874

Assay: amyloid nucleation score (Sup35N fusion, yeast selection) (log enrichment); library NNK2; higher = more nucleation; inactive = no reads after selection;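 note: zero at mode of non-aggregating sequences after 7 days selection at 30°C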
quantity.kind: amyloid nucleation score
Respond numerically, and do not add a unit to the figure.

AFVSYLCCGMYRVANSKSEG
9.9

Quick one: amyloid nucleation score for RVGTLKTISFHSNLNSNKIR ? -0.614

Quick one: amyloid nucleation score for RSARDYSVLKSRILSSAGLG ? 1.32

Quick one: amyloid nucleation score for KLPLFTSMCCTGHFPPITPP ? 0.409

Quick one: amyloid nucleation score for SHILSNVTYGLADVAFCACS ? 7.54

Quick one: amyloid nucleation score for LYKAGIGILLTGVILVF ? -1.12

Quick one: amyloid nucleation score for VACHVR ? 0.975

Quick one: amyloid nucleation score for SLRFGYNFKFLAMIKFPHIR ? -0.644

====

Assay: amyloid nucleation score (Sup35N fusion, yeast selection) (log enrichment); library NNK1; higher = more nucleation; inactive = no reads after selection
quantity.kind: amyloid nucleation score
Respond numerically, and do not add a unit to the figure.

Sample records with amyloid nucleation score:
LSGGWEVPQVVAERKARPWI
-0.037
WSTLVKRSDFCVHWVLFGSG
-0.179
HNLYMWVFCCCQYRMNFSWS
3.49
FTFSTGLLFYMFLYGWVH
-0.62

Quick one: amyloid nucleation score for SLNVNLMSRVYSSAREGGVS ? 1.73

====

Experiment: amyloid nucleation score (Sup35N fusion, yeast selection) (log enrichment); library NNK2; higher = more nucleation; inactive = no reads after selection
Below, each entry is listed with its recorded amyloid nucleation score.
Respond numerically, and do not add a unit to the figure.

GFGLPTGEVVTNNMALGKTE
-0.844
SWFRFCMYWFSDCRNILGS
4.58
VPVTGSNLPAVCKGHGVEYG
-0.045

--- query ---
Quick one: amyloid nucleation score for FNTYVVNFSRRGDIVMAKR ? 6.59

====

Below, each entry is listed with its recorded amyloid nucleation score.
Assay: amyloid nucleation score (Sup35N fusion, yeast selection) (log enrichment); library NNK2; higher = more nucleation; inactive = no reads after selection
Respond numerically, and do not add a unit to the figure.

Sample records with amyloid nucleation score:
QYFFNMMLMMDMLSLGGLSY
-0.063
NWGFISVLVALPWVWGLRPG
-0.387
HYAFVLGYKFYYGVANYCDG
0.886

Quick one: amyloid nucleation score for GLGMGDFCILVKLKANVSRC ? -0.266

Quick one: amyloid nucleation score for LNYRCAWWMLATMMLKRLSC ? 2.15

Quick one: amyloid nucleation score for LNAWQKEINDALSPLSYPDS ? 0.274

====

Below, each entry is listed with its recorded amyloid nucleation score.
Experiment: amyloid nucleation score (Sup35N fusion, yeast selection) (log enrichment); library NNK1; higher = more nucleation; inactive = no reads after selection
Respond numerically, and do not add a unit to the figure.

RRSPGYMDLCWNGWFGRAVR
0.207

Quick one: amyloid nucleation score for SKWLIRGCL ? 1.6

Quick one: amyloid nucleation score for LFHGCLVGLSMRKVKKKNPA ? 0.277

Quick one: amyloid nucleation score for FANLDSMNLIGKGFSMNYAL ? -0.614

Quick one: amyloid nucleation score for QHHSRRMNLGC ? -0.407

Quick one: amyloid nucleation score for TYDQTRMTVHRSSSIERART ? 0.173

Quick one: amyloid nucleation score for PYVFLGVMDPRVYDMLLHAN ? -0.085
